# Tested on: MET (Homo sapiens)
# Sequence (P08581 25-1390): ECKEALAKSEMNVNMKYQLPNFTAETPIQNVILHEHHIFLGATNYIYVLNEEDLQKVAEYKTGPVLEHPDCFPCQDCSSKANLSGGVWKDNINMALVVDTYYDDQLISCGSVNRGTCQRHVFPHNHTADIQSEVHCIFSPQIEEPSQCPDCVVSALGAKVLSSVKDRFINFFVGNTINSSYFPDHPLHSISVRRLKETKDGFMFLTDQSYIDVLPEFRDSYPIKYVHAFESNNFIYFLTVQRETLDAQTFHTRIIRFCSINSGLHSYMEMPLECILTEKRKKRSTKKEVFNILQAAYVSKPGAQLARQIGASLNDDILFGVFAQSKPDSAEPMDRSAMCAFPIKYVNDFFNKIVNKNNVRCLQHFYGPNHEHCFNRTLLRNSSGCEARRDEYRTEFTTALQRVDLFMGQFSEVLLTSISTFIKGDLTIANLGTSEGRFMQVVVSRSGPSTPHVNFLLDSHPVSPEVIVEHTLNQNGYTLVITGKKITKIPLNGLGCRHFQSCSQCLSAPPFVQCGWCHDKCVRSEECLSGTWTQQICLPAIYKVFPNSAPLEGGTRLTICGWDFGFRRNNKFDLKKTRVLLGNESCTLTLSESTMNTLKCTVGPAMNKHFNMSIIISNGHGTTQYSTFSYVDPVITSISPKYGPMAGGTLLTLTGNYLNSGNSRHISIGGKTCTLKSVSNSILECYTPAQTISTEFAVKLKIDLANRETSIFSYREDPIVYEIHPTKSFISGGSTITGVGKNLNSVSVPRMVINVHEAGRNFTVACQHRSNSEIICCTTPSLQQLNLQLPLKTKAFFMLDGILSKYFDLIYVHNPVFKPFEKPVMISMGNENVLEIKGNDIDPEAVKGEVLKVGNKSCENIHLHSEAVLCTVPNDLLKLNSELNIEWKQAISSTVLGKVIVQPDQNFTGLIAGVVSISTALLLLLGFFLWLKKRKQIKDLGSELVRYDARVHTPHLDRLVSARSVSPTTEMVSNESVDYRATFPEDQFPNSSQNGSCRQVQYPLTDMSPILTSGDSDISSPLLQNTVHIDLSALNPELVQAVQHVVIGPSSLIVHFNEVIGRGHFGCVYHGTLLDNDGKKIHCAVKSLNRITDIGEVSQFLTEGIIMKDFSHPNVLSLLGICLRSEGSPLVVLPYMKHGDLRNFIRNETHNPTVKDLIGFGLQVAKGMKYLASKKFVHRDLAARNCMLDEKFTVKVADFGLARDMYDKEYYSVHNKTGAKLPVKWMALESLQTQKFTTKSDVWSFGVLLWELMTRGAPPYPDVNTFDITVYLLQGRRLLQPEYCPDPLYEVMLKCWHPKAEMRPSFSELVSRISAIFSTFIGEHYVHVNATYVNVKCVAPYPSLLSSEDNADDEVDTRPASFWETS
# Procedure summary: KinAffinity target profiling
# Experimental parameters: PC9 cell extract, read-out: KD_free
Quantity: pKd
Expect pKd as a plain number equal to -log10 of the molar concentration.

Inquiry: # query: pKd of entry CN1CCN(CCOc2cc(OC3CCOCC3)c3c(Nc4c(Cl)ccc5c4OCO5)ncnc3c2)CC1 [saracatinib]
Reply text: 5.18

----------
# Tested on: HCC4006 NSCLC cell line
# Procedure summary: Cellular growth inhibition (CellTiter Glo viability assay)
# Type: cell-based
# Experimental parameters: Homo sapiens, HCC4006, read-out: Sensitivity Saracatinib
pIC50: −log10 of the molar value.
Quantity: pIC50

Inquiry: # query: pIC50 of entry CN1CCN(CCOc2cc(OC3CCOCC3)c3c(Nc4c(Cl)ccc5c4OCO5)ncnc3c2)CC1
Reply text: > 5.46

----------
# Tested on: HCC78 NSCLC cell line
# Procedure summary: Cellular growth inhibition (CellTiter Glo viability assay)
# Format: cell-based
# Experimental parameters: Homo sapiens, HCC78, read-out: Sensitivity Dasatinib
pIC50: −log10 of the molar value.
Quantity: pIC50

Inquiry: # query: pIC50 of entry Cc1nc(Nc2ncc(C(=O)Nc3c(C)cccc3Cl)s2)cc(N2CCN(CCO)CC2)n1
Reply text: < 6.00

----------
# Tested on: TEC (Homo sapiens, UniProt P42680)
# Construct: PC9 cells were lysed in buffer; endogenous in cells
# Sequence (P42680 1-631): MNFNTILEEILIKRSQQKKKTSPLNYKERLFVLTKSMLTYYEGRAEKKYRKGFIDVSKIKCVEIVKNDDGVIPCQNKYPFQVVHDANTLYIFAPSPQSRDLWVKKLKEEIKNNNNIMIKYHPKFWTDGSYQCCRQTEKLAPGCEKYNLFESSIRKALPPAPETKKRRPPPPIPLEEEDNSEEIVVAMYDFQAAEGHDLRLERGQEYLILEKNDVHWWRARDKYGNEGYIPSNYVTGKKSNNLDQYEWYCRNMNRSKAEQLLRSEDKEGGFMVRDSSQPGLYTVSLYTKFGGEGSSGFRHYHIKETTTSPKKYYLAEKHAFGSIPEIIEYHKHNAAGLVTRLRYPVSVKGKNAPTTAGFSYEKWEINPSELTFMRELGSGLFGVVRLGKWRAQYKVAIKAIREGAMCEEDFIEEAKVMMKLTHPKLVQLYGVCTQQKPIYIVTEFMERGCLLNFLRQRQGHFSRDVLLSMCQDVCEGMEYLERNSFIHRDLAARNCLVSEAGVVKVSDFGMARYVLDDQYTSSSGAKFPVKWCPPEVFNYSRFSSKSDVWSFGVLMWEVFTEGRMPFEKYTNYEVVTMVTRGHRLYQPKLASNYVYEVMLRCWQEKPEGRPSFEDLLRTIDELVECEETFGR
# Procedure summary: KinAffinity target profiling
# Experimental parameters: PC9 cell extract, read-out: KD_free
Quantity: pKd
Expect pKd as a plain number equal to -log10 of the molar concentration.

Inquiry: Entry CN1CCN(CCOc2cc(OC3CCOCC3)c3c(Nc4c(Cl)ccc5c4OCO5)ncnc3c2)CC1 , system TEC (Homo sapiens, UniProt P42680): what pKd was measured?
Reply text: 5.34

----------
# Tested on: EPHA2 (Homo sapiens)
# Construct: PC9 cells were lysed in buffer containing 20 mM HEPES pH 7.5; endogenous in cells
# Sequence (P29317 24-976): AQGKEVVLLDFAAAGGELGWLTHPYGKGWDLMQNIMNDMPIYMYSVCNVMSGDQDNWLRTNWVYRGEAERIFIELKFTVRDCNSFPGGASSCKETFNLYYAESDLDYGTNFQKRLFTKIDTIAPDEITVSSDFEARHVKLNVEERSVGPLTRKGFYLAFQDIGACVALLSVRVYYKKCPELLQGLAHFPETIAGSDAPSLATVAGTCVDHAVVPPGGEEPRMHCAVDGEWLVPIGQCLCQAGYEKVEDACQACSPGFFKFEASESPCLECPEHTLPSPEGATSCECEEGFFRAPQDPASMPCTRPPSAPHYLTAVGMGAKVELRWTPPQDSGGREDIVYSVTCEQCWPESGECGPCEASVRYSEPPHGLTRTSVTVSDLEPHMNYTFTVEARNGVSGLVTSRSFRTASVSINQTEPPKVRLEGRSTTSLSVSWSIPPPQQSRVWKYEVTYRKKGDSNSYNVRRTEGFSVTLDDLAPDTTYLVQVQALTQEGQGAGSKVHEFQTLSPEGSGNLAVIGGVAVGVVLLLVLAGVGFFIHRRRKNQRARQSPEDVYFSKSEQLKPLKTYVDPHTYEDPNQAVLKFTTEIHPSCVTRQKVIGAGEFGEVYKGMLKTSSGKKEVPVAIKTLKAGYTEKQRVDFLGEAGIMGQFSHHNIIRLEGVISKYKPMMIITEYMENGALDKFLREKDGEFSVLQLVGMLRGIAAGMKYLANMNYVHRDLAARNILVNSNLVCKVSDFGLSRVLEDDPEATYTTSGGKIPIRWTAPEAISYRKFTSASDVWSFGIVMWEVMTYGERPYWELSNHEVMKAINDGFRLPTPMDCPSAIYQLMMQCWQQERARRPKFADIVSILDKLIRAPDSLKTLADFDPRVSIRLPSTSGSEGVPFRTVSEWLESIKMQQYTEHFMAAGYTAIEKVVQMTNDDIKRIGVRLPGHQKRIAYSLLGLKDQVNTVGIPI
# Procedure summary: KinAffinity target profiling
# Experimental parameters: PC9 cell extract, read-out: KD_free
# Method: For in vitro association experiments 4×10^8 PC9 cells were lysed in buffer containing 20 mM HEPES pH 7.5, 400 mM NaCl. […] The extracted peptides were derivatized for quantitative mass spectrometry using the TMT 6-plex reagent according to the manufactures instructions and were subsequently combined for mass spectrometric analysis. […]
Quantity: Kd

Inquiry: # query: Kd of entry CN1CCN(CCOc2cc(OC3CCOCC3)c3c(Nc4c(Cl)ccc5c4OCO5)ncnc3c2)CC1 [saracatinib]
Reply text: 108 nM
